Where do these numbers come from? They come from paper PMC6058575.

test: Pharmacokinetic study after intravenous administration; assay type: in vivo; settings: rat, plasma, iv, 1.5 mg/kg; rats, 1.5 mg CPT/kg i.v., two-compartment model
Metric: Tmax (min)
One number for each entry, in min.

According to the records, this molecule "CC[C@@]1(O)C(=O)OCc2c1cc1n(c2=O)Cc2cc3ccccc3nc2-1" displays Tmax of 1.98

---

assay: Pharmacokinetic study after intravenous administration; assay type: in vivo; details: rat, plasma, iv, 1.5 mg/kg; rats, 1.5 mg CPT/kg i.v., two-compartment model; read-out: Cmax
Metric: Cmax (ng/mL)
Answers are plain numbers, in ng/mL.

According to the records, this compound "CC[C@@]1(O)C(=O)OCc2c1cc1n(c2=O)Cc2cc3ccccc3nc2-1" displays Cmax of 917

---

test: Pharmacokinetic study after intravenous administration; type: in vivo; conditions: rat, plasma, iv, 1.5 mg/kg; rats, 1.5 mg CPT/kg i.v., two-compartment model
Metric: AUC(0-t) (ng·h/mL)
Give bare numbers, in ng·h/mL.

According to the records, this compound CC[C@@]1(O)C(=O)OCc2c1cc1n(c2=O)Cc2cc3ccccc3nc2-1 [CPT, camptothecin] displays AUC(0-t) of 748

---

Assay: Pharmacokinetic study after intravenous administration
Assay type: in vivo
Conditions: rat, plasma, iv, 1.5 mg/kg; rats, 1.5 mg CPT/kg i.v., two-compartment model
Experimental: The rats were fasted for 12 h with free access to water before the experiment. Briefly, 0.5 ml of blood was collected in centrifuge tubes at predefined times of 0.083, 0.33, 0.5, 1, 2, 4, 8, 12, and 24 h. Blood samples were centrifuged at 15,000 rpm for 15 min at 4 °C to isolate plasma fractions. Then, 100 μL of methanol was added to the plasma, and the mixture was extracted with 2 mL hexane and 1 mL dichloromethane. […]
Metric: AUC(0-inf) (ng·h/mL)
Give bare numbers, in ng·h/mL.

According to the records, this compound "CC[C@@]1(O)C(=O)OCc2c1cc1n(c2=O)Cc2cc3ccccc3nc2-1" displays AUC(0-inf) of 753

---

assay: Pharmacokinetic study after intravenous administration; assay type: in vivo; conditions: rat, plasma, iv, 1.5 mg/kg; rats, 1.5 mg CPT/kg i.v., two-compartment model; read-out: MRT(0–∞)
Metric: MRT inf (h)
Answers are plain numbers, in h.

According to the records, this compound "CC[C@@]1(O)C(=O)OCc2c1cc1n(c2=O)Cc2cc3ccccc3nc2-1" displays MRT inf of 2.59
